Target: Human C3 (human, UniProt P01024 23-1663)
Sequence (P01024 23-1663 limits assumed): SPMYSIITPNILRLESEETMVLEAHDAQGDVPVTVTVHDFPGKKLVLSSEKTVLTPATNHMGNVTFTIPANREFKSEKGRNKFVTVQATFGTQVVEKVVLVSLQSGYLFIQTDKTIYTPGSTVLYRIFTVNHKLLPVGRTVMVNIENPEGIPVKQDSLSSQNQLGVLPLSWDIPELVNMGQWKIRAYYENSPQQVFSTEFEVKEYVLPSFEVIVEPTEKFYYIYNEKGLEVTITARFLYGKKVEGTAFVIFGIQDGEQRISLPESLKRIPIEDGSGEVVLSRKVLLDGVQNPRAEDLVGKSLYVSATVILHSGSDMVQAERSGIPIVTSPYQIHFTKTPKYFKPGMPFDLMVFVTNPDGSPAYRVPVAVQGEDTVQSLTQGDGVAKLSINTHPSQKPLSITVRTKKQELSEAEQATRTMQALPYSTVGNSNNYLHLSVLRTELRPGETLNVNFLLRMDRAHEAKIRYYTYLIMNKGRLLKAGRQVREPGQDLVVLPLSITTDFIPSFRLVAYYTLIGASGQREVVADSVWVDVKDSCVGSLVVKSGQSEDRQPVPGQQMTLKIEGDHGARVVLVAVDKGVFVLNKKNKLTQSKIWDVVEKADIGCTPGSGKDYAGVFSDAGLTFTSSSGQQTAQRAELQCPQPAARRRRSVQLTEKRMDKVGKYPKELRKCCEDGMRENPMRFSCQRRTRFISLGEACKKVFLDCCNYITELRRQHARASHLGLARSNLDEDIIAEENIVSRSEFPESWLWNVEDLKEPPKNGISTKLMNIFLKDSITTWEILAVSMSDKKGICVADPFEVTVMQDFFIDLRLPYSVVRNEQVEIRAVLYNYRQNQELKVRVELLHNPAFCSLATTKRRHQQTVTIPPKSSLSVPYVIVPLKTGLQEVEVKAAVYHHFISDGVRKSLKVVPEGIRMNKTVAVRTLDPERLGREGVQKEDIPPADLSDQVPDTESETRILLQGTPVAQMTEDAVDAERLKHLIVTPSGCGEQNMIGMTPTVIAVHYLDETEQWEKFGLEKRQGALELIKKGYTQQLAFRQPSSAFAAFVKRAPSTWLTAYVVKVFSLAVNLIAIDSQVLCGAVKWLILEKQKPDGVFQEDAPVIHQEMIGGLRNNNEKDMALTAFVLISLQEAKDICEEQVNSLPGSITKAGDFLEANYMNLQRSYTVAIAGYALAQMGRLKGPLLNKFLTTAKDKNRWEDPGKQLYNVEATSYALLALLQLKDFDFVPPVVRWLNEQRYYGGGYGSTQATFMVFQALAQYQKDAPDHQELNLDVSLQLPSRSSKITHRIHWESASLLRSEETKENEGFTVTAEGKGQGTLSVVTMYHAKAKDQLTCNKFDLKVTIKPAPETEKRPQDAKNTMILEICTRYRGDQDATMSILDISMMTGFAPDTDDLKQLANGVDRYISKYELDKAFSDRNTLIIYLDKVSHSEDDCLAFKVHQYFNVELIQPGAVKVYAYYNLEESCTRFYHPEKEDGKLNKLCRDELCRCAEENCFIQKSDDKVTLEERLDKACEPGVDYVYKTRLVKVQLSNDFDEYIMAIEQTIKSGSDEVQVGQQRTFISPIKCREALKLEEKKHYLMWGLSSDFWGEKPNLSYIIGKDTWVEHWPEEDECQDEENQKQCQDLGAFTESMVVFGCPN
Experiment: cell-based or functional assay
Starred links: 1 amine or outer side, 2 acyl side, 3 side chain; linkers in the order of their positions; H or OH if unused. Positions of bridges follow the written chain, without caps; N, C: chain ends. Non-standard residues stand in square brackets, D forms with d. Groups on a side chain read outwards from the residue. *: point of attachment. Trp(1-Me) = Cn1cc(C[C@H](N)C(=O)O)c2ccccc21; C18 diacid = O=C(O)CCCCCCCCCCCCCCCCC(=O)*; γGlu = O=C(O)[C@H](CCC(=O)[*:2])N[*:1]; AEEA = NCCOCCOCC(=O)O; Sar = CNCC(=O)O
testReadout: IC50[nM], inhibition of hemolysis

IC50[nM], inhibition of hemolysis measured on Ac-SEYCI[Trp(1-Me)]QDWGEHRC[Sar]EGE[AEEA][AEEA]K([γGlu-Gly-γGlu-C18 diacid])-NH2 (disulfide 4-14) [Compound 117] = < 250 nM

IC50[nM], inhibition of hemolysis measured on Ac-SAICIWQDWGEHRCTEG-NH2 (disulfide 4-14; SMILES CC[C@H](C)[C@H](NC(=O)[C@H](C)NC(=O)[C@H](CO)NC(C)=O)C(=O)N[C@H]1CSSC[C@@H](C(=O)N[C@H](C(=O)N[C@@H](CCC(=O)O)C(=O)NCC(N)=O)[C@@H](C)O)NC(=O)[C@H](CCCNC(=N)N)NC(=O)[C@H](Cc2c[nH]cn2)NC(=O)[C@H](CCC(=O)O)NC(=O)CNC(=O)[C@H](Cc2c[nH]c3ccccc23)NC(=O)[C@H](CC(=O)O)NC(=O)[C@H](CCC(N)=O)NC(=O)[C@H](Cc2c[nH]c3ccccc23)NC(=O)[C@H]([C@@H](C)CC)NC1=O) [Compound 42] = < 250 nM
